Test system: Calu-3
Assay: Cytotoxicity against human Calu-3 cells assessed as reduction in cell […] at 10 uM incubated for 24 hrs by cell titer glo luminescent assay
Format: toxicity, cell-based
Conditions: calu-3, 24 h
experimental endpoint: Activity

chemical structure: O=C(Sc1nc2ccccc2s1)c1cc2ccccc2[nH]1
experimental endpoint: Activity
experimental result: Non-Toxic

chemical structure: Cc1ccnc(SC(=O)c2cc3ccccc3[nH]2)n1
experimental endpoint: Activity
experimental result: Non-Toxic

chemical structure: CCC(CC)COC(=O)[C@H](C)N[P@](=O)(OC[C@H]1O[C@@](C#N)(c2ccc3c(N)ncnn23)[C@H](O)[C@@H]1O)Oc1ccccc1
experimental endpoint: Activity
experimental result: Non-Toxic

chemical structure: O=C(Sc1nncs1)c1cc2ccccc2[nH]1
experimental endpoint: Activity
experimental result: Non-Toxic

chemical structure: O=C(Sc1ncccn1)c1cc2ccccc2[nH]1
experimental endpoint: Activity
experimental result: Non-Toxic

chemical structure: O=C(Oc1cncc(Cl)c1)c1cccc2[nH]ccc12
experimental endpoint: Activity
experimental result: Non-Toxic

chemical structure: Cc1nnc(SC(=O)c2ccc(-c3ccccc3)o2)s1
experimental endpoint: Activity
experimental result: Non-Toxic

chemical structure: Cc1nnc(SC(=O)c2ccc(C#Cc3ccccc3)o2)s1
experimental endpoint: Activity
experimental result: Non-Toxic

chemical structure: O=C(Sc1ncccn1)c1ccc(-c2ccccc2)o1
experimental endpoint: Activity
experimental result: Non-Toxic

chemical structure: Cc1nnc(SC(=O)c2ccc3[nH]ccc3c2)s1
experimental endpoint: Activity
experimental result: Non-Toxic

chemical structure: Cc1nnc(SC(=O)c2ccc3cc[nH]c3c2)s1
experimental endpoint: Activity
experimental result: Non-Toxic

chemical structure: Cc1nnc(SC(=O)c2cccc3[nH]ccc23)s1
experimental endpoint: Activity
experimental result: Non-Toxic

chemical structure: Cc1nnc(SC(=O)c2cc3ccccc3n2C)s1
experimental endpoint: Activity
experimental result: Non-Toxic

chemical structure: Cc1nnc(SC(=O)c2cccc3cc[nH]c23)s1
experimental endpoint: Activity
experimental result: Non-Toxic

chemical structure: O=C(Sc1ncccn1)c1ccc(-c2ccc(Br)cc2)s1
experimental endpoint: Activity
experimental result: Non-Toxic

chemical structure: CSc1nnc(SC(=O)c2cc3ccccc3[nH]2)s1
experimental endpoint: Activity
experimental result: Non-Toxic

chemical structure: COc1nnc(SC(=O)c2cc3ccccc3[nH]2)s1
experimental endpoint: Activity
experimental result: Non-Toxic

chemical structure: O=C(Sc1ncccn1)c1ccc2ccccc2n1
experimental endpoint: Activity
experimental result: Non-Toxic

chemical structure: Cc1nnc(SC(=O)c2ccc3ccccc3c2)s1
experimental endpoint: Activity
experimental result: Non-Toxic

---

Quick list: pKi per entry.
Target: Replicase polyprotein 1ab (Severe acute respiratory syndrome coronavirus 2)
Experiment: Inhibition of recombinant his tagged SARS CoV-2 main protease expressed in Escherichia coli BL21 assessed as inhibition constant using Boc-Abu-Tle-Leu-Gln-AMC37 as fluorogenic substrate pre-incubated for 5 mins followed by substrate addition measured after 60 mins by FRET based assay
pKi: −log10 of the molar value.

chemical structure: O=C(Sc1nc2ccccc2s1)c1cc2ccccc2[nH]1
pKi: 7.14
--
chemical structure: Cc1nnc(SC(=O)c2ccc3cc[nH]c3c2)s1
pKi: 6.73
--
chemical structure: O=C(Sc1ncccn1)c1cc2ccccc2[nH]1
pKi: 7.85
--
chemical structure: O=C(Sc1nc2ccccc2s1)c1ccc(-c2ccc(Br)cc2)o1
pKi: 7.89
--
chemical structure: Cc1nnc(SC(=O)c2ccc3ccccc3c2)s1
pKi: 7.68
--
chemical structure: O=C(Sc1nc2ccccc2s1)c1ccc2ccccc2n1
pKi: 7.29
